Where do these numbers come from? They come from the supplement of paper PMC3334620.

Tested Target: Cin5 (UniProt P40917)
Sequence: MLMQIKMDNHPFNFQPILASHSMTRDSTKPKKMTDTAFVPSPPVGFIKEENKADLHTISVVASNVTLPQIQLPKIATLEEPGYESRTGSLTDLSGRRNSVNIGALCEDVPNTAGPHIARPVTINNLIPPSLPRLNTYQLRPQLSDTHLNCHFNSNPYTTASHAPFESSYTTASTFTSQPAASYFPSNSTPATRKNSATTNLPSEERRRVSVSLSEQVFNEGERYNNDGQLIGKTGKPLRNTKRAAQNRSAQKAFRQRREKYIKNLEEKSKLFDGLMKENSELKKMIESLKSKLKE
Experimental Details: PBM E-score (8-mer binding enrichment) (E-score (-0.5 to 0.5)); higher = stronger / more preferred TF binding
Assay Context: protein concentration: 100 nM; construct: GST-full length
In all, about 33,000 sequences were measured (“E-score (-0.5 to 0.5)”: median about -0.0059, highest 2% from about 0.26 on). Only a selection was taken, and the highest values are over-represented in it overall.
Reported PBM E-score values follow for various sequences
Parameter Measured: PBM E-score

Record Sequence	Value
GCTTACTA	0.388
CCTTATCA	0.0994
CTCGACGC	0.0204
CTAATTTA	0.158
GGGAATCA	-0.0779
AGAGATCT	-0.171
TATCTCAA	0.261
CGGAATCA	0.27
ATTCCGCA	-0.0146
CCGCCACG	-0.222
CGAAAGAC	1e-05
ACTATAGT	0.174
AAGGCCCT	-0.136
ATAATTTA	0.332
CTGCTTCA	-0.153
CGTTTCCA	0.0865
CTGACGTC	0.035
CACTGAAC	0.0413
ATGACGTG	0.191
ACTTATCA	0.0834
ATGCACTA	-0.0624
ATCCCGCC	0.0426
CTACACCA	-0.00077
ACTTACTA	0.108
GTGGAAAA	0.0919
ATAAGAAA	0.156
CATCTCAG	0.268
ATTCCACG	0.0808
CAGGAAGA	-0.0593
CATGCACA	0.156
ATAAGAAC	0.31
CGGAGTGA	0.0979
GGGTTGAA	-0.0789
ATCCCGCA	0.135
ATTCCGCC	0.215
